- Test system: 2Sb-muMax20 (muMax20 with two 1,3-bis(methyl)benzene Cys staples, A13C/A17C and Q88C/A92C, C-terminal Lys)
- assay method text: PBM 8-mer E-score (E-score (rank enrichment, -0.5 to 0.5)); higher = stronger preferential binding
In all, about 33,000 sequences were measured (“E-score (rank enrichment, -0.5 to 0.5)”: median about -0.0028, highest 2% from about 0.23 on). This is one part of a sample in which the highest values are shown more often than they occur.
Label TRUE for high-side PBM 8-mer E-score (at or above 0.1) and FALSE for low-side PBM 8-mer E-score (below it).

Answered cases to consult:
sequence data	discrete label
CCACCCCG	FALSE
AGGTAAAC	FALSE
ATAGTTAG	TRUE
CCTAGAGC	FALSE
ATCACGTG	TRUE
CGCTTGTA	TRUE

Problem: Is PBM 8-mer E-score at least 0.1? Consider ACACCCCA
Solution: TRUE

Problem: Is PBM 8-mer E-score at least 0.1? Consider AATACGCA
Solution: TRUE

Problem: Is PBM 8-mer E-score at least 0.1? Consider AATACGTA
Solution: TRUE

Problem: Is PBM 8-mer E-score at least 0.1? Consider CTACTAAC
Solution: TRUE

Problem: Is PBM 8-mer E-score at least 0.1? Consider TCACCCGA
Solution: FALSE
